# reported Cell viability at 300 nM (%); entries follow
- System: MRC5 cells
- assay_notes: Cell viability assay in MRC5 cells (MTT)
- condition_info: 300 nM
The reply should be a number in %, with the unit left off.

compound: COC(=O)c1cc2c(cc1C)/C(=C(/Nc1ccc(C(=O)NOC3CCN(C)CC3)cc1)c1ccccc1)C(=O)N2 [Example 30]
assay_endpoint: Cell viability at 300 nM (%)
numeric_value: 87.7

Let's switch to this compound now.
Input: Could you please provide reported Cell viability at 300 nM (%) for COC(=O)c1ccc2c(c1)NC(=O)/C2=C(\Nc1ccc(C(=O)NOCCN(C)CCO)cc1)c1ccccc1 [Example 45] ? Thanks!
Output: 104.7

----------
- assay_notes: PAMPA permeability assay
- Format: in vitro ADME
- condition_info: PAMPA, pH 7, pH 7, 10 μM, 5 hr
If the reported Papp at 5 h, 10 μM equals or exceeds 0.02 ×10⁻⁶ cm/s, assign TRUE. If not, assign FALSE.

Answered examples (2):
compound: COC(=O)c1cc2c(cc1C)/C(=C(/Nc1ccc(C(=O)NOCCN3CCN(CCO)CC3)cc1)c1ccccc1)C(=O)N2 [Example 7]
qualitative_label: TRUE

compound: COC(=O)c1ccc2c(c1)NC(=O)/C2=C(\Nc1ccc(C(=O)NOCCN2CCC(O)CC2)cc1)c1ccccc1 [Example 40]
qualitative_label: FALSE

Input: Determine whether measured Papp at 5 h, 10 μM meets or exceeds 0.02 ×10⁻⁶ cm/s for COC(=O)c1cc2c(cc1C)/C(=C(/Nc1ccc(C(=O)N(C)OCCN3CCNCC3)cc1)c1ccccc1)C(=O)N2 [Example 57]
Output: TRUE

Input: Determine whether measured Papp at 5 h, 10 μM meets or exceeds 0.02 ×10⁻⁶ cm/s for COC(=O)c1ccc2c(c1)NC(=O)/C2=C(\Nc1ccc(C(=O)NOCCN2CCN(C)CC2)c(F)c1)c1ccccc1 [Example 33]
Output: FALSE

Input: Determine whether measured Papp at 5 h, 10 μM meets or exceeds 0.02 ×10⁻⁶ cm/s for COC(=O)c1cc2c(cc1C)/C(=C(/Nc1ccc(C(=O)NOCCCN(C)C)c(C)c1)c1ccccc1)C(=O)N2 [Example 29]
Output: FALSE

----------
- assay_notes: Pharmacokinetic measurements in rats (intravenous and intra-tracheal dosing)
- Type: in vivo
- condition_info: male, CD, lung, other: intra-tracheal; rat, i.t. dosing, 24 h; read-out: lung concentration (nM) at time (h)
assay_endpoint: concentration at 24 h (nM)
The reply should be a number in nM, with the unit left off.

# count of solved cases: 5
compound_structure_string: COC(=O)c1cc2c(cc1C)/C(=C(/Nc1ccc(C(=O)NOCCN(C)C)c(C)c1)c1ccccc1)C(=O)N2
numeric_value: 747

compound_structure_string: COC(=O)c1ccc2c(c1)NC(=O)/C2=C(\Nc1ccc(C(=O)NOCCN(C)C)cc1)c1ccccc1
numeric_value: 247

compound_structure_string: COC(=O)c1ccc2c(c1)NC(=O)/C2=C(\Nc1ccc(S(=O)(=O)NOCCN(C)C)cc1)c1ccccc1
numeric_value: 135

compound_structure_string: COC(=O)c1ccc2c(c1)NC(=O)/C2=C(\Nc1ccc(C(=O)NOCCN2CCN(C)CC2)cc1)c1ccccc1
numeric_value: 218

compound_structure_string: COC(=O)c1cc2c(cc1C)/C(=C(/Nc1ccc(C(=O)NOCCN3CCN(C)CC3)cc1)c1ccccc1)C(=O)N2
numeric_value: 4720

Let's switch to this compound now.
Input: Could you please provide reported concentration at 24 h for COC(=O)c1cc2c(cc1C)/C(=C(/Nc1ccc(C(=O)NOCCN3CCN(CCO)CC3)cc1)c1ccccc1)C(=O)N2 ? Thanks!
Output: 519

----------
- assay_notes: Pharmacokinetic measurements in mice (intravenous and intra-nasal dosing)
- Format: in vivo
- condition_info: male, C57BL/6J, lung, iv; mouse, i.v. dosing, 0.1 h, mean; read-out: lung concentration (nM) at time (h)
# reported concentration at 0.1 h; entries follow
The reply should be a number in nM, with the unit left off.

# count of solved cases: 2
compound: COC(=O)c1cc2c(cc1C)/C(=C(/Nc1ccc(C(=O)NOCCN3CCN(C)CC3)cc1)c1ccccc1)C(=O)N2
concentration at 0.1 h (nM): 580
--
compound: COC(=O)c1cc2c(cc1C)/C(=C(/Nc1ccc(C(=O)NOCCN(C)C)c(C)c1)c1ccccc1)C(=O)N2
concentration at 0.1 h (nM): 868

Let's switch to this compound now.
Input: Could you please provide reported concentration at 0.1 h for COC(=O)c1ccc2c(c1)NC(=O)/C2=C(\Nc1ccc(N(C)C(=O)CN2CCN(C)CC2)cc1)c1ccccc1 [Nintedanib, reference compound] ? Thanks!
Output: 2380

----------
- assay_notes: Pharmacokinetic measurements in mice (intravenous and intra-nasal dosing)
- Format: in vivo
- condition_info: male, C57BL/6J, lung, other: intra-nasal; mouse, i.n. dosing, 24 h, mean; read-out: lung concentration (nM) at time (h)
assay_endpoint: concentration at 24 h (nM)
The reply should be a number in nM, with the unit left off.

# count of solved cases: 2
compound: COC(=O)c1ccc2c(c1)NC(=O)/C2=C(\Nc1ccc(N(C)C(=O)CN2CCN(C)CC2)cc1)c1ccccc1 [Nintedanib, reference compound]
value_units: nM
numeric_value: 15
--
compound: COC(=O)c1cc2c(cc1C)/C(=C(/Nc1ccc(C(=O)NOCCN(C)C)c(C)c1)c1ccccc1)C(=O)N2 [Example 5]
value_units: nM
numeric_value: 363

Let's switch to this compound now.
Input: Could you please provide reported concentration at 24 h for COC(=O)c1cc2c(cc1C)/C(=C(/Nc1ccc(C(=O)NOCCN3CCN(C)CC3)cc1)c1ccccc1)C(=O)N2 [Example 6] ? Thanks!
Output: 84

----------
- target_or_system: PDGFRβ (Homo sapiens (Human))
- Sequence (P09619 33-1106): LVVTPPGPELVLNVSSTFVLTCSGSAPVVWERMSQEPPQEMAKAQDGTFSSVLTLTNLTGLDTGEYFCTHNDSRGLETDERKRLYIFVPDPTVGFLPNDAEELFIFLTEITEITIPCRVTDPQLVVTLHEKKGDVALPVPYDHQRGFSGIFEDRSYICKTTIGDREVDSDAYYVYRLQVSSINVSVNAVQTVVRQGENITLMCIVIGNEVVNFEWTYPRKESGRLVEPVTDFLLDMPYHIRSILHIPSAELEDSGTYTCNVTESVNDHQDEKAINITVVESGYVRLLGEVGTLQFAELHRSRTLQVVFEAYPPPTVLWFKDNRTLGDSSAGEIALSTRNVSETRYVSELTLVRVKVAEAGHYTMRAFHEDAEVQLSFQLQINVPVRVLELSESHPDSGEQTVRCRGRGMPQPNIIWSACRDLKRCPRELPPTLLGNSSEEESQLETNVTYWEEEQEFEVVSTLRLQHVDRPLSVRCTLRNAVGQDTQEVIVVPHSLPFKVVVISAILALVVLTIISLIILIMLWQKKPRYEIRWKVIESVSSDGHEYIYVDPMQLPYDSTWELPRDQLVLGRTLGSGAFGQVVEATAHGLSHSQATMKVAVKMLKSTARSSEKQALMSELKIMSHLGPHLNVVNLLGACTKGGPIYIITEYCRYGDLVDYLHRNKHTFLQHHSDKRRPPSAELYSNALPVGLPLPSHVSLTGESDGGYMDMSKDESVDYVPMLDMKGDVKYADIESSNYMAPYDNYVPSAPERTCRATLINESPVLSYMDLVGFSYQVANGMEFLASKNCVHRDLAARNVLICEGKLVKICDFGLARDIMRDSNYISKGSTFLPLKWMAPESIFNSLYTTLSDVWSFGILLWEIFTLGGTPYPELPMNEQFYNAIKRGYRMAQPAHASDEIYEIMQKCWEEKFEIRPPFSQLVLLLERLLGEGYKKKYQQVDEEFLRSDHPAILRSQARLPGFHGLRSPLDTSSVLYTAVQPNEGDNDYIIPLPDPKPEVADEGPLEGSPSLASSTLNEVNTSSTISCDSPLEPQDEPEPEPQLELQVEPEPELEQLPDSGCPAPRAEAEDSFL
- condition_info: read-out: Ki PDGFRβ; mean, n = 2 unless otherwise indicated
assay_endpoint: pKi
Hey, just a heads up that pKi is the negative log base 10 of the concentration in molar.

compound_structure_string: COC(=O)c1cc2c(cc1C)/C(=C(/Nc1ccc(C(=O)NOCCN3CCC(O)CC3)cc1)c1ccccc1)C(=O)N2
numeric_value: 7.74

Input: Could you please provide reported pKi for COC(=O)c1ccc2c(c1)NC(=O)/C2=C(\Nc1ccc(C(=O)NOCCCN(C)C)cc1)c1ccccc1 ? Thanks!
Output: 8.02

Input: Could you please provide reported pKi for COC(=O)c1ccc2c(c1)NC(=O)/C2=C(\Nc1ccc(C(=O)N(OC)C2CCN(C)CC2)cc1)c1ccccc1 ? Thanks!
Output: 7.99

Input: Could you please provide reported pKi for COC(=O)c1cc2c(cc1C)/C(=C(/Nc1ccc(C(=O)N(OC)C3CCN(C)CC3)c(C)c1)c1ccccc1)C(=O)N2 ? Thanks!
Output: 7.80

Input: Could you please provide reported pKi for COC(=O)c1ccc2c(c1)NC(=O)/C2=C(\Nc1ccc(C(=O)NOCCN(C)CCO)cc1)c1ccccc1 ? Thanks!
Output: 7.85

Input: Could you please provide reported pKi for COC(=O)c1cc2c(cc1C)/C(=C(/Nc1ccc(C(=O)NOCCN(C)C)c(C)c1)c1ccccc1)C(=O)N2 ? Thanks!
Output: 8.15

Input: Could you please provide reported pKi for COC(=O)c1cc2c(cc1C)/C(=C(/Nc1ccc(C(=O)NOCCN3CCCCC3)cc1)c1ccccc1)C(=O)N2 ? Thanks!
Output: 7.51

Input: Could you please provide reported pKi for COC(=O)c1cc2c(cc1C)/C(=C(/Nc1ccc(C(=O)NOCCN3CCC(OC)CC3)cc1)c1ccccc1)C(=O)N2 ? Thanks!
Output: 7.77

Input: Could you please provide reported pKi for COC(=O)c1cc2c(cc1C)/C(=C(/Nc1ccc(C(=O)NOCCN3CCC(N(C)C)CC3)cc1)c1ccccc1)C(=O)N2 ? Thanks!
Output: 8.03

Input: Could you please provide reported pKi for COC(=O)c1cc2c(cc1C)/C(=C(/Nc1ccc(C(=O)NOC3CCN(C)CC3)cc1)c1ccccc1)C(=O)N2 ? Thanks!
Output: 8.14

Input: Could you please provide reported pKi for COC(=O)c1ccc2c(c1)NC(=O)/C2=C(\Nc1ccc(C(=O)NOCCN2CCC(C#N)CC2)cc1)c1ccccc1 ? Thanks!
Output: 7.49

Input: Could you please provide reported pKi for COC(=O)c1ccc2c(c1)NC(=O)/C2=C(\Nc1ccc(C(=O)NOCCN(C)C)c(F)c1)c1ccccc1 ? Thanks!
Output: 7.95

Input: Could you please provide reported pKi for COC(=O)c1cc2c(cc1C)/C(=C(/Nc1ccc(C(=O)N(C)OCCN3C4CCC3CNC4)cc1)c1ccccc1)C(=O)N2 ? Thanks!
Output: 7.89

Input: Could you please provide reported pKi for COC(=O)c1ccc2c(c1)NC(=O)/C2=C(\Nc1ccc(C(=O)NOCCN2CCN(C)CC2)c(F)c1)c1ccccc1 ? Thanks!
Output: 8.07
